Target: BRCA1-associated RING domain protein 1 (Homo sapiens)
Sequence (Q99728 whole entry, the tested form may be a part): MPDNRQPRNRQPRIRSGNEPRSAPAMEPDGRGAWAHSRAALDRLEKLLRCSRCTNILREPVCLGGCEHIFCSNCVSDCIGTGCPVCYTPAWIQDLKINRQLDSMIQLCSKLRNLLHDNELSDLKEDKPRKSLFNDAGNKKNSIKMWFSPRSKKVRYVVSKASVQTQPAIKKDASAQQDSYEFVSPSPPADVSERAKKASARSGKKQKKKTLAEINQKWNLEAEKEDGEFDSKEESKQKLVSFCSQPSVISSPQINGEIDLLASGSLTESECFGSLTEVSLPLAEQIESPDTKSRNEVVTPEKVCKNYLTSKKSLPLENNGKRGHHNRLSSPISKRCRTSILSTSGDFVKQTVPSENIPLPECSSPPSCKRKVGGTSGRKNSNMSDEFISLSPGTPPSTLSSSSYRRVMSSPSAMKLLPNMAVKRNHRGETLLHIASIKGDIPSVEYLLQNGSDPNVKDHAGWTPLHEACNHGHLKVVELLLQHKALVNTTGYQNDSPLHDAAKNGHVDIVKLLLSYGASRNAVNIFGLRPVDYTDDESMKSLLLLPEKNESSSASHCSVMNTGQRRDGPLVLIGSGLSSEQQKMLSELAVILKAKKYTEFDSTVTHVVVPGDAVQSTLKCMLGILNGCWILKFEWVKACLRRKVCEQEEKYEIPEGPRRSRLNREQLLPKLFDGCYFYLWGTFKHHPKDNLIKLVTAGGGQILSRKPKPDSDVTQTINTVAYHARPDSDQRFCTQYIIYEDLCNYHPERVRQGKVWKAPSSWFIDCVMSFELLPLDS
Test: inhibition of Brca1/Bard1 split-luciferase complementation, dose response, counter-screen for Mdm2/MdmX interaction inhibitor project, cell-based, luminescence (AID 504669)
Attribute measured: IC50
A bare number is not enough; add the unit after it.

# IC50 (compound: Cc1cc(N=NC(C)c2ccccc2O)nc(-c2ccccc2O)n1 (stereo unspecified) ) is 5.35 µM
